Task for the reader: assign each of the following proteins its reported kcat.
- Target Entity: Factor X, P00742
- Sequence (P00742 whole entry, looked up): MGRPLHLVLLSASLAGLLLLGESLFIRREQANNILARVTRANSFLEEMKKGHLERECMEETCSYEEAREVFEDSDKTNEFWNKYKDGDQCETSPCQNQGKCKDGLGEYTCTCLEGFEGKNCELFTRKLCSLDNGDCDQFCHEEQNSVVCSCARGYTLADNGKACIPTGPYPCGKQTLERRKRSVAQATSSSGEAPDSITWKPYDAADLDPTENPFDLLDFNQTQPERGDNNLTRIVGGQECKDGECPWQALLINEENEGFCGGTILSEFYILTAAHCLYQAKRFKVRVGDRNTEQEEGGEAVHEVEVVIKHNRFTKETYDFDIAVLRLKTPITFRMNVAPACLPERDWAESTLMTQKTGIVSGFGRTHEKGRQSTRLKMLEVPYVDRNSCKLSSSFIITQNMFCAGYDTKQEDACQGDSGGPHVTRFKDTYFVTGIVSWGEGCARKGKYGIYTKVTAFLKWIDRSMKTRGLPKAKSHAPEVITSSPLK
Give bare numbers, in s⁻¹.

[
  {
    "Protein": "FIXa-R318Y/R338E/E410N/T412V (protein) chain 1: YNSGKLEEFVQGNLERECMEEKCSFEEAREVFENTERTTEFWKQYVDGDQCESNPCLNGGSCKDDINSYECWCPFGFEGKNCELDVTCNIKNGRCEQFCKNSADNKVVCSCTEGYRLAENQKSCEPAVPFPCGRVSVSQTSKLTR chain 2: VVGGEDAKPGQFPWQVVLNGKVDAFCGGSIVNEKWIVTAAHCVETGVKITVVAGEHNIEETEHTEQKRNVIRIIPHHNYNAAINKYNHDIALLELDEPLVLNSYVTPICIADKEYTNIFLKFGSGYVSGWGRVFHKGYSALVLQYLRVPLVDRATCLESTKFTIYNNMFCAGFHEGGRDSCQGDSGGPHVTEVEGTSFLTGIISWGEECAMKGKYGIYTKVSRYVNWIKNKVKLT",
    "kcat / s⁻¹": 6.3
  }
]

Would you kindly look at the next entry?
Noted for FIXa-Y155F/K247N/N249S/R318Y/T343R (protein) chain 1: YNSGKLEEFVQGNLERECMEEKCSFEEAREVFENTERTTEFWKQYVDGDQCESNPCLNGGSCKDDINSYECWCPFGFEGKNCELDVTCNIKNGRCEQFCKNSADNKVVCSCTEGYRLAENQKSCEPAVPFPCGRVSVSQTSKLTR chain 2: VVGGEDAKPGQFPWQVVLNGKVDAFCGGSIVNEKWIVTAAHCVETGVKITVVAGEHNIEETEHTEQNRSVIRIIPHHNYNAAINKYNHDIALLELDEPLVLNSYVTPICIADKEYTNIFLKFGSGYVSGWGRVFHKGYSALVLQYLRVPLVDRATCLRSTKFRIYNNMFCAGFHEGGRDSCQGDSGGPHVTEVEGTSFLTGIISWGEECAMKGKYGIYTKVSRYVNWIKEKTKLT : its kcat reads 10.3
